- Tested on: NCI-H522
- ASSAY_OVERVIEW: NCI tumour cell line growth inhibition, 48 h
The source made the active and inactive calls. No stated cut-off is given here; in the data, active = GI50 up to about 1.1 µM and inactive = higher.
// allowed return values: active, inactive

COMPOUND	ASSIGNED_LABEL
C=CN1CCN(c2ccccc2)P1(=O)Oc1ccccc1 (stereo unspecified)	inactive
Cc1cccc(-c2cc(O)c3c(C)ccnc3n2)c1	active
CC(C)CCCC(C)[C@H]1CCC2[C@@H]3CCC4Cc5nc6c(nc5C[C@]4(C)C3CC[C@@]21C)CC1CC[C@@H]2C(C[C@@H](O)[C@@]3(C)C2C[C@@H]2OC4(CCC(C)CO4)C(C)[C@@H]23)[C@@]1(C)C6 (stereo partly specified)	inactive
Nc1ccc(C(=O)NN2C(=O)C(Cl)C2c2cccc([N+](=O)[O-])c2)cc1 (stereo unspecified)	inactive
COC(=O)C1CC2c3c(c4ccccc4n3C)CC(C1=O)N2C (stereo unspecified)	inactive
COc1ccc(CC2=NCCc3cc(OC)c(OC)cc32)cc1Br	inactive

Prompt: What did the test return for `CC1=C(C(=O)Nc2ccccc2)C(c2cccc3ccccc23)C(C(=O)Nc2ccccc2)=C(C)N1` ?
Response: inactive

Prompt: What did the test return for `Clc1ccccc1/C=C/c1nsc(/C=C/c2ccccc2Cl)n1` ?
Response: inactive

Prompt: What did the test return for O=C(O)C(Cc1c[nH]cn1)N1C(=O)c2ccccc2C1=O (stereo unspecified) ?
Response: inactive

Prompt: What did the test return for `Cc1ccc(NC(=O)C(=O)CC(=O)c2ccccc2)cc1C` ?
Response: inactive

Prompt: What did the test return for `O=[N+]([O-])c1cc2no[n+]([O-])c2cc1N1CCCCC1` ?
Response: inactive
